Test system: hTERT-HMEC
Assay: percentage of EdU-negative (G0-arrested) nuclei per well, 72 h; higher = more G0 arrest
Settings: protein concentration 0.3125 µM; reference: sequence is the full UniProt precursor, the tested protein was the secreted form or ectodomain
Readout kind: percentage of EdU-negative
Please format your answer as a value with the unit trailing.

Sample answers from the record:
| Residue sequence | Assayed system | percentage of EdU-negative |
| --- | --- | --- |
| MLFSALLLEVIWILAADGGQHWTYEGPHGQDHWPASYPECGNNAQSPIDIQTDSVTFDPDLPALQPHGYDQPGTEPLDLHNNGHTVQLSLPSTLYLGGLPRKYVAAQLHLHWGQKGSPGGSEHQINSEATFAELHIVHYDSDSYDSLSEAAERPQGLAVLGILIEVGETKNIAYEHILSHLHEVRHKDQKTSVPPFNLRELLPKQLGQYFRYNGSLTTPPCYQSVLWTVFYRRSQISMEQLEKLQGTLFSTEEEPSKLLVQNYRALQPLNQRMVFASFIQAGSSYTTGEMLSLGVGILVGCLCLLLAVYFIARKIRKKRLENRKSVVFTSAQATTEA [Q9ULX7] | hTERT-HMEC | 4.94% |
| MFPFYSCWRTGLLLLLLAVAVRESWQTEEKTCDLVGEKGKESEKELALVKRLKPLFNKSFESTVGQGSDTYIYIFRVCREAGNHTSGAGLVQINKSNGKETVVGRLNETHIFNGSNWIMLIYKGGDEYDNHCGKEQRRAVVMISCNRHTLADNFNPVSEERGKVQDCFYLFEMDSSLACSPEISHLSVGSILLVTFASLVAVYVVGGFLYQRLVVGAKGMEQFPHLAFWQDLGNLVADGCDFVCRSKPRNVPAAYRGVGDDQLGEESEERDDHLLPM | hTERT-HMEC | 5.43% |

Shift focus to the following entry.
Given item `MFHVSFRYIFGLPPLILVLLPVASSDCDIEGKDGKQYESVLMVSIDQLLDSMKEIGSNCLNNEFNFFKRHICDANKEGMFLFRAARKLRQFLKMNSTGDFDLHLLKVSEGTTILLNCTGQVKGRKPAALGEAQPTKSLEENKSLKEQKKLNDLCFLKRLLQEIKTCWNKILMGTKEH` , the value recorded as its percentage of EdU-negative is 4.47%

* * *

Test system: hTERT-HMEC;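 further: secreted proteins added to cultured cells, EdU pulse at the end, nuclei found by Hoechst imaging, EdU status from nuclear versus surrounding ring intensity ratio, PBS as neutral control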
Experiment: percentage of EdU-negative (G0-arrested) nuclei per well, 72 h; higher = more G0 arrest
Details: protein concentration 0.357143 µM; reference: sequence is the full UniProt precursor, the tested protein was the secreted form or ectodomain
Readout kind: percentage of EdU-negative (%)
Give the quantity in %, number only.

| Residue sequence | percentage of EdU-negative [%] |
| --- | --- |
| MNPTLILAAFCLGIASATLTFDHSLEAQWTKWKAMHNRLYGMNEEGWRRAVWEKNMKMIELHNQEYREGKHSFTMAMNAFGDMTSEEFRQVMNGFQNRKPRKGKVFQEPLFYEAPRSVDWREKGYVTPVKNQGQCGSCWAFSATGALEGQMFRKTGRLISLSEQNLVDCSGPQGNEGCNGGLMDYAFQYVQDNGGLDSEESYPYEATEESCKYNPKYSVANDTGFVDIPKQEKALMKAVATVGPISVAIDAGHESFLFYKEGIYFEPDCSSEDMDHGVLVVGYGFESTESDNNKYWLVKNSWGEEWGMGGYVKMAKDRRNHCGIASAASYPTV | 5.42 |

Given item MARILLLFLPGLVAVCAVHGIFMDRLASKKLCADDECVYTISLASAQEDYNAPDCRFINVKKGQQIYVYSKLVKENGAGEFWAGSVYGDGQDEMGVVGYFPRNLVKEQRVYQEATKEVPTTDIDFFCE [Q9NRC9] , the value recorded as its percentage of EdU-negative is 5.74

Given item MMRTCVLLSAVLWCLTGVQCPRFTLFNKKGFIYGKTGQPDKIYVELHQNSPVLICMDFKLSKKEIVDPTYLWIGPNEKTLTGNNRINITETGQLMVKDFLEPLSGLYTCTLSYKTVKAETQEEKTVKKRYDFMVFAYREPDYSYQMAVRFTTRSCIGRYNDVFFRVLKKILDSLISDLSCHVIEPSYKCHSVEIPEHGLIHELFIAFQVNPFAPGWKGACNGSVDCEDTTNHNILQARDRIEDFFRSQAYIFYHNFNKTLPAMHFVDHSLQVVRLDSCRPGFGKNERLHSNCASCCVVCSPATFSPDVNVTCQTCVSVLTYGAKSCPQTSNKNQQYED [Q6X784] , the value recorded as its percentage of EdU-negative is 6.88
